Kindly state pIC50 for each of the entries shown.
Test system: A431 (ATCC: CRL-1555)
METHOD_SUMMARY: Test of cancer cell growth inhibition (SRB), A431
CONDITION_SUMMARY: Homo sapiens, A-431, 72 h, read-out: IC50 A431
Answers are plain numbers, as −log10 of the molar value.

C=CC(=O)N1C[C@H](OC)C[C@H]1C(=O)Nc1ccc2ncnc(Nc3ccc(OCc4ccccn4)c(Cl)c3)c2c1 :: 6.17

Would you be so kind as to report pIC50 for each listed record?
1. C=CC(=O)N1CC(C(=O)Nc2cc3c(Nc4ccc(OCc5ccccn5)c(Cl)c4)ncnc3cc2OC)C1
2. C=CC(=O)NCCC(=O)Nc1cc2c(Nc3ccc(OCc4cccc(F)c4)c(Cl)c3)ncnc2cc1OCCCN1CCOCC1
3. C=CC(=O)N1CCC[C@H]1C(=O)Nc1ccc2ncnc(Nc3ccc(OCc4ccncc4)c(Cl)c3)c2c1

Reply:
1: 6.48; 2: 7.92; 3: 6.40
